tested on: large crabgrass; test: Test C pre-/postemergence herbicide test; type: in vivo, Digitaria sanguinalis; conditions: Postemergence; 250 g ai/ha; scale 0 to 100, 0 no effect, 100 complete control
observation_type: Plant response rating, Crabgrass, Large
Number only, please.

Exercise: For CCn1nc(C(C)(C)C)cc1C(=O)Nc1cccc(C(=O)NC2CC2)n1 , what is its reported Plant response rating, Crabgrass, Large?
Solution: 50

Exercise: Now give it for CCn1nc(C(C)(C)C)cc1C(=O)Nc1cccc(C(=O)OC)c1 too.
Solution: 30

Exercise: How about this compound: CCn1nc(C(C)(C)C)cc1C(=O)Nc1cccc(C(C)=NO)c1
Solution: 70

Exercise: Also need C#CCOC(=O)c1cccc(NC(=O)c2cc(C(C)(C)C)nn2CC)c1 , thanks.
Solution: 0

###

test system: wild oat; test: Test B postemergence herbicide test; format: in vivo, Avena fatua; conditions: 125 g ai/ha; visual rating, scale 0 (no effect) to 100 (complete control); postemergence
observation_type: Oat, Wild plant response rating
Form field (numeric): enter value without unit.

Exercise: Could you tell me which Oat, Wild plant response rating is on file for CCc1nn(C(C)(C)C)nc1C(=O)Nc1cc(C(=O)N2CCCCC2)ccc1F ?
Solution: 10

Exercise: Same question, C=CCN(CC=C)C(=O)c1ccc(F)c(NC(=O)c2nn(C(C)(C)C)nc2CC)c1 this time
Solution: 0

Exercise: Note, next up: CCNC(=O)c1cncc(NC(=O)c2cc(C(C)(C)C)nn2CC)n1
Solution: 20

###

tested on: large crabgrass; experiment: Test B pre-/postemergence herbicide test; type: in vivo, Digitaria sanguinalis; conditions: postemergence, 125 g ai/ha; visual rating, scale 0 (no effect) to 100 (complete control)
observation_type: Crabgrass, Large plant response rating
Form rule: numeric answer, no unit written next to it.

Exercise: Item: CCn1nc(C(C)(C)C)cc1C(=O)Nc1cccc(OC(C)C)c1 [Compound 273] Test system: large crabgrass Read-out: Crabgrass, Large plant response rating Value: ?
Solution: 30

Exercise: Next compound: CCc1nn(C(C)(C)C)cc1C(=O)Nc1cc(C(=O)NC)ccc1F [Compound 194]
Solution: 10

Exercise: And what about the compound CCn1nc(C(C)(C)C)cc1C(=O)Nc1ccnc(C(=O)NCCF)c1 [Compound 284] ?
Solution: 0

Exercise: Also CC(=NO)c1cccc(NC(=O)c2cc(C(C)(C)C)nn2CC(F)(F)F)c1 [Compound 112] , if possible.
Solution: 20

Exercise: And for CCn1nc(C(C)(C)C)cc1C(=O)Nc1cccc(C(C)=NO)c1 [Compound 108] ?
Solution: 20

###

tested on: lambsquarters; experiment: Test C pre-/postemergence herbicide test; format: in vivo, Chenopodium album; settings: 62 g ai/ha; preemergence; scale 0 to 100
observation_type: Plant response rating, Lambsquarters
Answer with the value's number alone.

Exercise: Recorded Plant response rating, Lambsquarters for CCN(CC)C(=O)c1cccc(NC(=O)c2nn(C(C)(C)C)nc2C)c1 , please?
Solution: 95

Exercise: What do you get for CCN1N=C(C(C)(C)C)CC1C(=O)Nc1cc(C(=O)N2CCCC2)ccc1F (racemic) ?
Solution: 100

Exercise: Can you check CCC1=NN(C(C)(C)C)CC1C(=O)Nc1cc(C(=O)N2CCCC2)ccc1F (racemic) next?
Solution: 100

Exercise: Continue with CCC1=NN(C(C)(C)C)CC1C(=O)Nc1cc(C(=O)N2CC=CC2)ccc1F (racemic)
Solution: 70

Hello, the source for this data is patent US20060069132A1, in case you need it.
